src = patent US20210206842A1

target: human Nav1.7 polypeptide (human, UniProt Q15858 1-1988); assay: cell-based or functional assay
Measured endpoint: reduction of the amplitude of the Nav1.7 currents at 1 µM (%)

{"Binder": "VHH DI-A (VHH, From the naive LAC-M library; soluble tagged monomer in protein ELISA and patch clamp; also called clone A; not shown: 6xHis and c-Myc tags on the soluble monomer) VHH: QVQLVESGGGLVQPGGSLRLSCAASGRTISSFTMGWFRQAPGAEREFVAAISRSGSSTVYAGSVKGRFTISRDNAKNTVYLQMNSLKPEDTAVYYCNAVITEPLYKTDDSYWGQGTQVTVSS", "Unit tag": "%", "Value measured": 2.73}
{"Binder": "VHH DI-B (VHH, From the naive LAC-M library; soluble tagged monomer in protein ELISA and patch clamp; also called clone B; not shown: 6xHis and c-Myc tags on the soluble monomer) VHH: QVKLEESGGGLVPPGESLRLTCAATGQTASVYEMAWFRRAPEKEQVYVASINWRDGDTQYHNSVKGRFIISRDNAKNTVFLQMNSLTPEDTAIYYCAARKELAGYDYWGQGTQVTVSS", "Unit tag": "%", "Value measured": 1.73}
{"Binder": "VHH DI-C (VHH, From the naive LAC-M library; soluble tagged monomer in protein ELISA and patch clamp; also called clone C; not shown: 6xHis and c-Myc tags on the soluble monomer) VHH: QVKLEESGGGLVQPGESLRLSCVGSGFNFRIQAMAWFRQAPGKEREFVASISGSGATTDHADSVKGRFAISKDNARDTMYLQMNNLKPEDTAVYYCYAISQHVPPYHYWGQGTQVTVSS", "Unit tag": "%", "Value measured": 0.46}
{"Binder": "VHH DI-H (VHH, From the naive LAC-M library; soluble tagged monomer in protein ELISA and patch clamp; also called clone H; not shown: 6xHis and c-Myc tags on the soluble monomer) VHH: QVKLEESGGGLVQAGESLRLSCVNSGSTFSIYAMGWYRQAPGKQRELVAAISSVGRTNYADSVKGRFTISRAGAKNTVYLHMNNLKPEDTAVYSCITYYQNAMYFGQGTQVTVSS", "Unit tag": "%", "Value measured": 1.72}
